- test method notes: hit retest on RPL19A-GFP reporter strain – cell-based, S. cerevisiae, flow cytometry, cherry picks, mother/daughter gates, confirmation (AID 2270)
- stated conditions: 3 h, at 10 µM, stronger effect = lower value, 100 = same GFP as DMSO wells
readout name: GFP response vs DMSO (%)
Just the number in %, nothing appended.

QUERY: Please supply the value of reported GFP response vs DMSO for the item Cc1ccc(OCCCCn2ccnc2C)c(C)c1
RESULT: 99.6

QUERY: Could you please provide reported GFP response vs DMSO for O=C1c2ccccc2-c2onc3ccc(Oc4ccccc4)c1c23 ? Thanks!
RESULT: 86.5

QUERY: Let me know recorded GFP response vs DMSO for CCOc1cc(C=O)ccc1OCCSc1ccc(C)cc1 , thanks.
RESULT: 92.9

QUERY: For CCOC(=O)C(Cc1cc(C(C)=O)ccc1OC(C)C)C(=O)OCC , write its GFP response vs DMSO.
RESULT: 101

QUERY: Dear colleague, please send me the reported GFP response vs DMSO for O=[N+]([O-])c1cccc2cn[nH]c12 when you can.
RESULT: 97.3

QUERY: # return recorded GFP response vs DMSO for entry OC(CCN1CCCCC1)(c1ccccc1)c1ccccc1
RESULT: 100

QUERY: For the compound CC(=O)OCC(=O)[C@H]1CC[C@H]2[C@@H]3CCC4=CC(=O)CC[C@]4(C)[C@H]3CC[C@]12C , give its reported GFP response vs DMSO.
RESULT: 95.8

QUERY: Tell me GFP response vs DMSO reported for O=C(NCCN1CCN(c2ccccc2)CC1)c1cccc(Br)c1
RESULT: 97

QUERY: Please report GFP response vs DMSO for the following compound: O=c1cc(-c2ccccc2)oc2cc(OCc3ccccc3)cc(O)c12
RESULT: 98.2

QUERY: Consider the compound CC(=O)OCC(=O)[C@@]1(O)CC[C@H]2[C@@H]3CCC4=CC(=O)CC[C@]4(C)[C@H]3[C@@H](O)C[C@@]21C . State its measured GFP response vs DMSO.
RESULT: 95.8

QUERY: Quickly give me recorded GFP response vs DMSO for CCCCCCCC(=O)OCC(=O)[C@@]1(O)CC[C@H]2[C@@H]3CCC4=CC(=O)CC[C@]4(C)[C@H]3[C@@H](O)C[C@@]21C
RESULT: 96.5

QUERY: // Input: CCCS(=O)(=O)c1nnnn1-c1cccc(OC)c1 . Output its GFP response vs DMSO only.
RESULT: 87.7

QUERY: For the compound CNCCC(Oc1ccc(C(F)(F)F)cc1)c1ccccc1 (stereo not drawn) , give its measured GFP response vs DMSO value.
RESULT: 98.4

QUERY: Specify reported GFP response vs DMSO for the compound shown: C1COC(NC(C2CC2)C2CC2)=N1
RESULT: 96

QUERY: Tell us which GFP response vs DMSO value is on record for CC(=O)[C@H]1CC[C@H]2[C@@H]3CCC4=CC(=O)CC[C@]4(C)[C@H]3[C@H](O)C[C@]12C
RESULT: 99.1

QUERY: Give the reported GFP response vs DMSO for this compound. CC(C)CC(=O)Nc1ccc2oc(-c3ccncc3)nc2c1
RESULT: 103

QUERY: Return GFP response vs DMSO (reported value) for this compound: COCCN1C(=O)/C(=C/c2ccc(N3CCCC3)cc2C)SC1=S
RESULT: 99.6

QUERY: Provide one value: measured GFP response vs DMSO of Oc1ccc2ccccc2c1/C=N/Nc1nnc(-c2ncc[nH]2)c2ccccc12
RESULT: 108

QUERY: Name the recorded GFP response vs DMSO of the item CN/C(=C/[N+](=O)[O-])NCCSCc1ccc(CN(C)C)o1 in your answer.
RESULT: 100

QUERY: In one line, give reported GFP response vs DMSO of the entry O=C(O)Cc1ccc(-c2ccccc2)cc1 .
RESULT: 96.5

QUERY: Return reported GFP response vs DMSO. Input compound: CN(C)CCCN1c2ccccc2Sc2ccc(Cl)cc21
RESULT: 101

QUERY: Let me know recorded GFP response vs DMSO for COc1ccc(C(=O)NCC2OCCc3ccccc32)cc1 (stereo not drawn) , thanks.
RESULT: 96.4

QUERY: Look up GFP response vs DMSO of C[C@]12CC[C@@H]3c4ccc(O)cc4C(=O)C[C@H]3[C@@H]1CC[C@@H]2O and report it.
RESULT: 97.4
